Numbers sourced from patent US11292821B2.

tested on: HLA-A*24; experiment: MHC binding assay (UV-ligand exchange, β2m ELISA); parameters: species or system human
quantityMeasured: Peptide exchange (peptide exchange yield, MHC class I binding score)

> print(dat)
                                  substance                result
1  30 (QYLPGWTVLF; listed as Homo sapiens) [compound 30]  “++++” (>75% = ++++)
2  56 (VYMIEPLEL; listed as Homo sapiens) [compound 56]  “++++” (>75% = ++++)
3  385 (MYINEVERL; listed as Homo sapiens) [compound 385]  “++++” (>75% = ++++)
4  65 (VYPASKMFPFI; listed as Homo sapiens) [compound 65]  “++++” (>75% = ++++)
5  58 (QFAAPLRGIYF; listed as Homo sapiens) [compound 58]  “++++” (>75% = ++++)
6  51 (KYALLLQEL; listed as Homo sapiens) [compound 51]  “++++” (>75% = ++++)
7  24 (MYPDLSELLM; listed as Homo sapiens) [compound 24]  “++++” (>75% = ++++)
8  15 (KYALLLQDL; listed as Homo sapiens) [compound 15]  “++++” (>75% = ++++)
